tested on: Beet Armyworm (Spodoptera exigua); assay: Insecticidal diet-surface test for beet armyworm; format: in vivo; conditions: second-instar beet armyworm, 50 ug/cm2 on diet surface, 5 days after treatment, dead insects of 8
outcome measure: LAPHEG 50 (ug/cm2), percent control (%)
Provide the reading as a plain figure in %.

[Q] State the recorded LAPHEG 50 (ug/cm2), percent control for this entry: FC(F)C(F)(F)Oc1cccc(/C=N/Nc2nc(Cl)cc(Nc3ccc(Cl)cc3)n2)c1
[A] 63

[Q] State the recorded LAPHEG 50 (ug/cm2), percent control for this entry: Fc1ccc(/C=N/Nc2nc(Cl)cc(Nc3cccc(Cl)c3)n2)cc1C(F)(F)F
[A] 75

[Q] State the recorded LAPHEG 50 (ug/cm2), percent control for this entry: Fc1ccc(Nc2ccnc(N/N=C/c3ccc(OC(F)(F)C(F)F)cc3)n2)cc1C(F)(F)F
[A] 100

[Q] State the recorded LAPHEG 50 (ug/cm2), percent control for this entry: CCNCCNc1cc(Nc2ccc(F)c(C(F)(F)F)c2)nc(N/N=C/c2ccc(OC(F)(F)F)cc2)n1
[A] 100
